# system tested: CIB1 and αIIb interaction (CIB1-GST : F-αIIb peptide) (Homo sapiens)
# Construct: made in house; host or cells: BL-21 plus RIL cells (E. coli)
# Sequence (Q99828 1-191): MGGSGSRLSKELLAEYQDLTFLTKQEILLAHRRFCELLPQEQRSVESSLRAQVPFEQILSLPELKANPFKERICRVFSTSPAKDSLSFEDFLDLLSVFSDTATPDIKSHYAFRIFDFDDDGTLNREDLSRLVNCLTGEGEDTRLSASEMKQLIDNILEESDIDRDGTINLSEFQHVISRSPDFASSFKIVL
# run description: FP assay, 1536-well qHTS format (primary and confirmatory screen)
# Format: binding
# test conditions: confirmatory screen, qHTS curve class; negative sign = inhibitory curve
Please use met whenever CONFIRMATORY SCREEN Curve Class is not below -2, and not met whenever it is.

Exam item: Is CONFIRMATORY SCREEN Curve Class at least -2? Consider CN(C)C(=S)SSC(=S)N(C)C
Marked response: met

Exam item: Is CONFIRMATORY SCREEN Curve Class at least -2? Consider O=Cc1c(-c2ccccc2)no[n+]1[O-]
Marked response: met

Exam item: Is CONFIRMATORY SCREEN Curve Class at least -2? Consider CCc1ccc(S(=O)(=O)Nc2cnccc2C(=O)Nc2nc(-c3ccccc3)cs2)cc1.O=C(O)C(F)(F)F
Marked response: not met

====

# system tested: GST-CIB1 : F-scrambled peptide (Homo sapiens)
# Construct: made in house; host or cells: BL-21 plus RIL cells (E. coli)
# run description: FP scrambled-peptide counter screen, 1536-well format
# Format: binding
# test conditions: counterscreen; read-out: IC50 [μM] (counterscreen)
measured metric: IC50 (µM)
Numeric only. Scale: µM

Recorded IC50, per entry:
# compound, measured result
data = [
    ("CCN1CCN(c2ccc(Nc3ccc(-c4ccc(C(N)=O)cc4)n4ncnc34)cc2)CC1.O=C(O)C(F)(F)F [NCGC00249351-01]", 50.1),
    ("Cl.O=[N+]([O-])c1ccc(CNc2ccc(S(=O)(=O)Nc3nccs3)cc2)c(O)c1 [NCGC00273519-01]", 25.1),
    ("Cc1cc2nc3ccc(N(C)C)cc3[s+]c2cc1N.Cl.[Cl-] [NCGC00181775-02]", 44.7),
    ("O=C(O)CSc1cc(NS(=O)(=O)c2ccc(Br)cc2)c2ccccc2c1O [NCGC00386409-01]", 5),
    ("Oc1ccc2c(-c3c(-c4ccccn4)nn4c3CCC4)ccnc2c1 [NCGC00408881-01]", 50.1),
]

Exam item: What measured IC50 goes with CN1C[C@H](CNC(=O)OCc2ccccc2)C[C@@H]2c3cccc4c3c(cn4C)C[C@H]21 [NCGC00017257-10] ?
Marked response: 63.1

Exam item: What measured IC50 goes with COc1nc2ccc(Br)cc2cc1[C@@H](c1ccccc1)[C@@](O)(CCN(C)C)c1cccc2ccccc12 [NCGC00348215-04] ?
Marked response: 89.1

Exam item: What measured IC50 goes with O=C(O)C(F)(F)F.O=C1Nc2ccccc2/C1=N/NC(=S)Nc1ccccc1 [NCGC00229542-01] ?
Marked response: 4.5

====

# system tested: CIB1 and αIIb interaction (CIB1-GST : F-αIIb peptide) (Homo sapiens, UniProt Q99828)
# Construct: made in house; host or cells: BL-21 plus RIL cells (E. coli)
# run description: FP assay, 1536-well qHTS format (primary and confirmatory screen)
# Assay type: binding
# test conditions: qHTS primary screen of LOPAC/NPACT libraries; negative = inhibition
Efficacy (%) overview
Numeric only. Scale: %

# compound, Efficacy (%)
records = [
    ("CCOc1cc(C(=O)N2CCC(N3CCN(C)CC3)CC2)ccc1Nc1ncc2c(n1)N(C1CCCC1)c1ccccc1C(=O)N2C [NCGC00378965-03]", -25),
]

Exam item: What measured Efficacy (%) goes with COc1cccc(CNC(=O)C2=NC3SC=C(COCc4ccc(C(=O)O)cc4)C3C(=O)N2)c1 (stereo not shown) [NCGC00488702-01] ?
Marked response: -27

Exam item: What measured Efficacy (%) goes with C=C1CCC2C(C)(C)CC(O)CC2(C)C1CCC(C)CCOC(=O)CCC(=O)O (stereo not shown) [NCGC00380160-01] ?
Marked response: -24

Exam item: What measured Efficacy (%) goes with Cc1ccc(O)c(N=Nc2ccccc2)n1 [NCGC00185991-01] ?
Marked response: -14

Exam item: What measured Efficacy (%) goes with CCC(C)(OC(C)=O)C(=O)O[C@H]1[C@H](OC(C)=O)C[C@@H]2[C@@](C)([C@@H]3C[C@H]4C=CO[C@H]4O3)[C@H](C)C[C@H](OC(C)=O)[C@@]2(COC(C)=O)[C@@]12CO2 (stereo partly shown) [NCGC00380906-01] ?
Marked response: -20

Exam item: What measured Efficacy (%) goes with CN(C)c1cc2c(Nc3ccc4c(cnn4Cc4ccccc4)c3)ncnc2cn1 [NCGC00015468-06] ?
Marked response: -28

Exam item: What measured Efficacy (%) goes with C=C1C(=O)O[C@@H]2C3=C(C)CCC[C@]3(C)CC[C@@]12O [NCGC00385722-01] ?
Marked response: -30

====

# system tested: CIB1 and αIIb interaction (CIB1-GST : F-αIIb peptide) (Homo sapiens, UniProt Q99828)
# Construct: made in house; host or cells: BL-21 plus RIL cells (E. coli)
# run description: FP assay, 1536-well qHTS format (primary and confirmatory screen)
# Assay type: binding
# test conditions: qHTS FP screen hits, Table S2; read-out: IC50
measured metric: pIC50
Note on pIC50: it is the negative log10 of concentration, concentration in mol/L.

Exam item: Lab note: need pIC50 with CIB1 and αIIb interaction (CIB1-GST : F-αIIb peptide) (Homo sapiens, UniProt Q99828) for entry Cc1ccc(CNc2ncnc3ccc(-c4ccc([C@@H](C)O)o4)cc23)o1 , please look it up.
Marked response: 4.90

Exam item: Lab note: need pIC50 with CIB1 and αIIb interaction (CIB1-GST : F-αIIb peptide) (Homo sapiens, UniProt Q99828) for entry CC(C)=CCC[C@]1(C)C=Cc2c(O)c3c(c(CC=C(C)C)c2O1)O[C@]12C(=C[C@@H]4CC1C(C)(C)O[C@@]2(C/C=C(/C)C(=O)O)C4=O)C3=O , please look it up.
Marked response: 4.95

Exam item: Lab note: need pIC50 with CIB1 and αIIb interaction (CIB1-GST : F-αIIb peptide) (Homo sapiens, UniProt Q99828) for entry CN1CCc2ccc3c4c2[C@]1(C)Cc1cccc(c1-4)OCO3 , please look it up.
Marked response: 4.40

Exam item: Lab note: need pIC50 with CIB1 and αIIb interaction (CIB1-GST : F-αIIb peptide) (Homo sapiens, UniProt Q99828) for entry Cc1ccccc1NC(=O)CN1C(=O)N/C(=C\c2cn(-c3cccc(C(=O)O)c3)cn2)C1=O , please look it up.
Marked response: 4.95

Exam item: Lab note: need pIC50 with CIB1 and αIIb interaction (CIB1-GST : F-αIIb peptide) (Homo sapiens, UniProt Q99828) for entry Nc1ccc(O)c([N+](=O)[O-])c1 , please look it up.
Marked response: 3.95

Exam item: Lab note: need pIC50 with CIB1 and αIIb interaction (CIB1-GST : F-αIIb peptide) (Homo sapiens, UniProt Q99828) for entry Cn1sc(=O)n(Cc2ccccc2)c1=O , please look it up.
Marked response: 5.05

Exam item: Lab note: need pIC50 with CIB1 and αIIb interaction (CIB1-GST : F-αIIb peptide) (Homo sapiens, UniProt Q99828) for entry CN1CCN([C@H]2CC[C@H](n3cc(-c4ccc(Oc5ccccc5)cc4)c4c(N)ncnc43)CC2)CC1.Cl , please look it up.
Marked response: 4.30

====

IC50 overview
# system tested: CIB1 and αIIb interaction (CIB1-GST : F-αIIb peptide) (Homo sapiens)
# Construct: made in house; host or cells: BL-21 plus RIL cells (E. coli)
# run description: FP assay, 1536-well qHTS format (primary and confirmatory screen)
# Type: binding
# test conditions: qHTS primary screen hits, Table S2; read-out: IC50

Exam item: What measured IC50 goes with COc1cccc(-c2csc(NC(=O)c3ccncc3NS(=O)(=O)c3ccc(C)cc3)n2)c1.O=C(O)C(F)(F)F ?
Marked response: 47.4 µM

Exam item: What measured IC50 goes with O=C(c1ccc(F)cc1)c1no[n+]([O-])c1C(=O)c1ccc(F)cc1 ?
Marked response: 26.6 µM

Exam item: What measured IC50 goes with COc1ccc(C2CC(=O)Nc3nc(N4CCCCC4)sc32)c(OC)c1.O=C(O)C(F)(F)F (stereo not shown) ?
Marked response: 56.2 µM

Exam item: What measured IC50 goes with Cc1c2c(=O)n(-c3ccccc3)[nH]c2cc(=O)n1Cc1ccco1.O=C(O)C(F)(F)F ?
Marked response: 56.2 µM
